Sourced from paper PMC6968503

- target.under.test: hCA VA (Homo sapiens)
- Construct: gene CA5A
- Sequence (P35218 39-305): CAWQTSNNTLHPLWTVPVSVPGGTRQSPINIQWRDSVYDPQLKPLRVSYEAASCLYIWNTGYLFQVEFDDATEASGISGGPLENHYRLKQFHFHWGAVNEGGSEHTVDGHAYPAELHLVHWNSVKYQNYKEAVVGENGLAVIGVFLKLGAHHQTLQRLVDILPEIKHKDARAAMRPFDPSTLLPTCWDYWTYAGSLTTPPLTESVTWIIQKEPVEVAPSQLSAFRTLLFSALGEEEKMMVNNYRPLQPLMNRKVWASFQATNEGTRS
- measurement.description: stopped-flow CO2 hydration
- Assay type: biochemical
Each item that follows carries a reported Ki.
measurement.kind: Ki

1. CC[C@@H](C)[C@@H](NC(=O)OC(C)(C)C)C(=O)NCCc1ccc(S(N)(=O)=O)cc1 [compound 11] | 3.87 µM
2. NS(=O)(=O)c1ccc(CNC(=O)[C@H](Cc2ccccc2)NC(=O)OCC2c3ccccc3-c3ccccc32)cc1 [compound 20] | 6.83 µM
3. CC[C@@H](C)[C@@H](NC(=O)OC(C)(C)C)C(=O)NCc1ccc(S(N)(=O)=O)cc1 [compound 24] | 4.58 µM
4. CSCC[C@@H](NC(=O)OC(C)(C)C)C(=O)NCc1ccc(S(N)(=O)=O)cc1 [compound 21] | 4.99 µM
5. CC(C)(C)OC(=O)N[C@H](Cc1ccccc1)C(=O)NCc1ccc(S(N)(=O)=O)cc1 [compound 19] | 0.734 µM
6. CC(C)C[C@@H](NC(=O)OCc1ccccc1)C(=O)NCc1ccc(S(N)(=O)=O)cc1 [compound 13] | 0.578 µM
7. NS(=O)(=O)c1ccc(CCNC(=O)[C@@H](Cc2c[nH]c3ccccc23)NC(=O)OCc2ccccc2)cc1 [compound 8] | 3.01 µM

###

pKi listing for selected molecules.
- target.under.test: hCA VA (Homo sapiens)
- Construct: gene CA5A
- measurement.description: stopped-flow CO2 hydration
- Type: biochemical
pKi: −log10 of the molar value.
measurement.kind: pKi

1) CC(C)[C@@H](NC(=O)OCc1ccccc1)C(=O)NCc1ccc(S(N)(=O)=O)cc1 | 6.30
2) NS(=O)(=O)c1ccc(CCNC(=O)[C@H](Cc2ccccc2)NC(=O)OCC2c3ccccc3-c3ccccc32)cc1 | 5.46
3) NS(=O)(=O)c1ccc(CNC(=O)[C@@H](Cc2c[nH]c3ccccc23)NC(=O)OCc2ccccc2)cc1 | 6.40
4) CC(C)[C@@H](NC(=O)OC(C)(C)C)C(=O)NCc1ccc(S(N)(=O)=O)cc1 | 5.32
5) CC(C)[C@@H](NC(=O)OCc1ccccc1)C(=O)NCCc1ccc(S(N)(=O)=O)cc1 | 7.22
6) CSCC[C@H](NC(=O)OC(C)(C)C)C(=O)NCCc1ccc(S(N)(=O)=O)cc1 | 6.21
7) NS(=O)(=O)c1ccc(CNC(=O)[C@@H](CSc2ccccc2)NC(=O)OCc2ccccc2)cc1 | 5.40
8) CSCC[C@@H](NC(=O)OCc1ccccc1)C(=O)NCCc1ccc(S(N)(=O)=O)cc1 | 7.20
9) C[C@@H](NC(=O)OC(C)(C)C)C(=O)NCc1ccc(S(N)(=O)=O)cc1 | 5.27
10) CC(C)[C@@H](NC(=O)OC(C)(C)C)C(=O)NCCc1ccc(S(N)(=O)=O)cc1 | 6.18
11) CSCC[C@@H](NC(=O)OCc1ccccc1)C(=O)NCc1ccc(S(N)(=O)=O)cc1 | 6.42
12) CC(C)(C)OC(=O)NCC(=O)NCc1ccc(S(N)(=O)=O)cc1 | 5.44
13) C[C@@H](NC(=O)OC(C)(C)C)C(=O)NCCc1ccc(S(N)(=O)=O)cc1 | 7.16
14) NS(=O)(=O)c1ccc(CCNC(=O)CNC(=O)OCC2c3ccccc3-c3ccccc32)cc1 | 7.17
15) NS(=O)(=O)c1ccc(CCNC(=O)[C@@H](CSc2ccccc2)NC(=O)OCc2ccccc2)cc1 | 7.20
16) NS(=O)(=O)c1ccc(CCNC(=O)C[C@@H](NC(=O)OCc2ccccc2)C(=O)NCCc2ccc(S(N)(=O)=O)cc2)cc1 | 5.50
